# TARGET_OF_ASSAY: T1, cynomolgus monkey PVRIG on FlpinCHO-cyno PVRIG cells (cynomolgus monkey, UniProt A0A2K5WVV8 41-322)
# T1 construct: whole, on cells
# T1 sequence: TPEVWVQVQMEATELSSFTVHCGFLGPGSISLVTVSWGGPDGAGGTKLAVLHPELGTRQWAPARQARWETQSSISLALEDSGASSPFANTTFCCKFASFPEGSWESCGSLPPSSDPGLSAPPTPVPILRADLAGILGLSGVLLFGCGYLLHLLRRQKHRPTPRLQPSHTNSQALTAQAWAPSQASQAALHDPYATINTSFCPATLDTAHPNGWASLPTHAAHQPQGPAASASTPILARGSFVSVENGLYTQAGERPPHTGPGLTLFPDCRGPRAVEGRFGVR
# ASSAY_SUMMARY: FACS, FlpinCHO-cyno PVRIG cells
AUC % to COM701-hIgG1 values, listed per item
Report as a plain number; the unit % is understood.

Inquiry: Give the reported value of AUC % to COM701-hIgG1 for this record: PVRIG-A50-H1b (Fc fusion, humanized variant of PVRIG-A50; also called A50.VH1b; not shown: constant part not restated for the humanized forms; parents are VHH-hinge-CH2-CH3 of human IgG1; detected by anti-human) EVQLVESGGGLVQPGGSLRLSCAASGFTFSYYDMSWVRQAPGKGLEWVSTINSDGGRTSYVDSVKGRFTISRDNSKNTLYLQMNSLRAEDTAVYYCVEGDPHNFGLESLSLRDFGSWGQGTMVTVSS
Reply text: 34.4

Inquiry: Give the reported value of AUC % to COM701-hIgG1 for this record: PVRIG-A105-H3 (Fc fusion, humanized variant of PVRIG-A105; also called A105.VH3; not shown: constant part not restated for the humanized forms; parents are VHH-hinge-CH2-CH3 of human IgG1; detected by anti-human) EVQLVESGGGLVQPGGSLRLSCAASGRTFDRHTMTWFRQAPGKEREFVATASRIPGDTYYVDSVKGRFTISRDNAKNSVYLQMNSLRAEDTAVYYCAATSAYCSEVDCYEKGSWYDNWGQGTMVTVSS
Reply text: 86.4

Inquiry: Give the reported value of AUC % to COM701-hIgG1 for this record: PVRIG-A118-H5 (Fc fusion, humanized variant of PVRIG-A118; also called A118.VH5; not shown: constant part not restated for the humanized forms; parents are VHH-hinge-CH2-CH3 of human IgG1; detected by anti-human) EVQLVESGGGLVQPGGSLRLSCAASETYFDLYVMGWYRQAPGKDRELVATITYTGSIKYVDSVKGRFTISRGDAKNSVYLQMNSLRAEDTAVYYCNADPSGLGRKVYWGQGTMVTVSS
Reply text: 21.8

Inquiry: Give the reported value of AUC % to COM701-hIgG1 for this record: PVRIG-A50-H1a (Fc fusion, humanized variant of PVRIG-A50; also called A50.VH1a; not shown: constant part not restated for the humanized forms; parents are VHH-hinge-CH2-CH3 of human IgG1; detected by anti-human) EVQLVESGGGLVQPGGSLRLSCAASGFTFSYYDMSWVRQAPGKGLEWVSTINSDGGRTSYVDSVKGRFTISRDNSKNTLYLQMNSLRAEDTAVYYCVEGDPHNFGLENLSLRDFGSWGQGTMVTVSS
Reply text: 40.7

Inquiry: Give the reported value of AUC % to COM701-hIgG1 for this record: PVRIG-A50-H1e (Fc fusion, humanized variant of PVRIG-A50; also called VH1e; not shown: constant part not restated for the humanized forms; parents are VHH-hinge-CH2-CH3 of human IgG1; detected by anti-human) EVQLVESGGGLVQPGGSLRLSCAASGFTFSYYDMSWVRQAPGKGLEWVSTINSNAGRTSYVDSVKGRFTISRDNSKNTLYLQMNSLRAEDTAVYYCVEGDPHNFGLESLSLRDFGSWGQGTMVTVSS
Reply text: 43.3

Inquiry: Give the reported value of AUC % to COM701-hIgG1 for this record: PVRIG-A50-H1d (Fc fusion, humanized variant of PVRIG-A50; also called A50.VH1d; not shown: constant part not restated for the humanized forms; parents are VHH-hinge-CH2-CH3 of human IgG1; detected by anti-human) EVQLVESGGGLVQPGGSLRLSCAASGFTFSYYDMSWVRQAPGKGLEWVSTINSNGGRTSYVDSVKGRFTISRDNSKNTLYLQMNSLRAEDTAVYYCVEGDPHNFGLESLSLRDFGSWGQGTMVTVSS
Reply text: 48.6

Inquiry: Give the reported value of AUC % to COM701-hIgG1 for this record: PVRIG-A118-H2 (Fc fusion, humanized variant of PVRIG-A118; also called A118.VH2; not shown: constant part not restated for the humanized forms; parents are VHH-hinge-CH2-CH3 of human IgG1; detected by anti-human) EVQLVESGGGLVQPGGSLRLSCAASETYFDLYVMGWYRQAPGKDRELVATITYTGSIKYVDSVKGRFTISRDNAKNSLYLQMNSLRAEDTAVYYCNADPSGLGRKVYWGQGTMVTVSS
Reply text: 14.6

Inquiry: Give the reported value of AUC % to COM701-hIgG1 for this record: PVRIG-A118-H1 (Fc fusion, humanized variant of PVRIG-A118; also called A118.VH1; not shown: constant part not restated for the humanized forms; parents are VHH-hinge-CH2-CH3 of human IgG1; detected by anti-human) EVQLVESGGGLVQPGGSLRLSCAASETYFDLYVMGWYRQAPGKDRELVATITYTGSIYYVDSVKGRFTISRDNAKNSLYLQMNSLRAEDTAVYYCNADPSGLGRKVYWGQGTMVTVSS
Reply text: 11.5

Inquiry: Give the reported value of AUC % to COM701-hIgG1 for this record: PVRIG-A50 (Fc fusion, heavy chain antibody VHH-hinge-CH2-CH3, human IgG1 constant part; also called PVRIG-50; not shown: human IgG1 hinge-CH2-CH3) EVQLVESGGGLVQPGGSLRLSCAASGFTFSYYDMSWVRQAPGKGLEWVSTINSNGGRTSYVDSVKGRFTISRDNTKNTLYLQMNSLKPEDTAVYYCVEGDPHNFGLENLSLRDFGSWGQGTQVTVSS
Reply text: 47.1

Inquiry: Give the reported value of AUC % to COM701-hIgG1 for this record: PVRIG-A118-H6 (Fc fusion, humanized variant of PVRIG-A118; also called A118.VH6; not shown: constant part not restated for the humanized forms; parents are VHH-hinge-CH2-CH3 of human IgG1; detected by anti-human) EVQLVESGGGLVQPGGSLRLSCAASETYFDLYVMGWYRQAPGKDRELVATITYTGSIKIVDSVKGRFTISRGDAKNSLYLQMNSLRAEDTAVYYCNADPSGLGRKVYWGQGTMVTVSS
Reply text: 19.9

Inquiry: Give the reported value of AUC % to COM701-hIgG1 for this record: PVRIG-A105 (Fc fusion, heavy chain antibody VHH-hinge-CH2-CH3, human IgG1 constant part; not shown: human IgG1 hinge-CH2-CH3) EVQLVESGGGLVQAGGSLRLSCAASGRTFDRHTMTWFRQAPGKEREFVATASRIPGDTYYSHSVKGRFTISRDNAKNTVYLQLNNLKPEDTAVYYCAATSAYCSEVDCYEKGSWYDNWGQGIQVTVSS
Reply text: 87.5

Inquiry: Give the reported value of AUC % to COM701-hIgG1 for this record: PVRIG-A50-H1 (Fc fusion, humanized variant of PVRIG-A50; also called A50.VH1; not shown: constant part not restated for the humanized forms; parents are VHH-hinge-CH2-CH3 of human IgG1; detected by anti-human) EVQLVESGGGLVQPGGSLRLSCAASGFTFSYYDMSWVRQAPGKGLEWVSTINSNGGRTSYVDSVKGRFTISRDNSKNTLYLQMNSLRAEDTAVYYCVEGDPHNFGLENLSLRDFGSWGQGTMVTVSS
Reply text: 45.2

Inquiry: Give the reported value of AUC % to COM701-hIgG1 for this record: PVRIG-A118-H7 (Fc fusion, humanized variant of PVRIG-A118; also called A118.VH7; not shown: constant part not restated for the humanized forms; parents are VHH-hinge-CH2-CH3 of human IgG1; detected by anti-human) EVQLVESGGGLVQPGGSLRLSCAASETYFDLYVMGWYRQAPGKDRELVATITYTGSIKYVDSVKGRFTISRGDAKNSLYLQMNSLRAEDTAVYFCNADPSGLGRKVYWGQGTMVTVSS
Reply text: 19.7

Inquiry: Give the reported value of AUC % to COM701-hIgG1 for this record: PVRIG-A118-H4 (Fc fusion, humanized variant of PVRIG-A118; also called A118.VH4; not shown: constant part not restated for the humanized forms; parents are VHH-hinge-CH2-CH3 of human IgG1; detected by anti-human) EVQLVESGGGLVQPGGSLRLSCAASETYFDLYVMGWYRQAPGKDRELVATITYTGSIKYVDSVKGRFTISRGDAKNSLSLQMNSLRAEDTAVYYCNADPSGLGRKVYWGQGTMVTVSS
Reply text: 21.3

Inquiry: Give the reported value of AUC % to COM701-hIgG1 for this record: PVRIG-A50-H1c (Fc fusion, humanized variant of PVRIG-A50; also called A50.VH1c; not shown: constant part not restated for the humanized forms; parents are VHH-hinge-CH2-CH3 of human IgG1; detected by anti-human) EVQLVESGGGLVQPGGSLRLSCAASGFTFSYYDMSWVRQAPGKGLEWVSTINSDGGRTSYVDSVKGRFTISRDNSKNTLYLQMNSLRAEDTAVYYCVEGDPHNFGLENLALRDFGSWGQGTMVTVSS
Reply text: 38.8
